- STATED_CONDITIONS: in tert-butanol, 318.15 K

{"columns": ["ENTRY_SMILES", "solubility (mole fraction)"],
 "data": [
  ["Nc1ccnc(=O)[nH]1", 0.000706]
]}

---

- STATED_CONDITIONS: in n-octanol, 303.15 K
REPORTED_PROPERTY: solubility (mole fraction)

{"columns": ["ENTRY_SMILES", "TEST_RESULT"],
 "data": [
  ["Nc1ccnc(=O)[nH]1", 0.000133]
]}

---

- STATED_CONDITIONS: in tert-butanol, 313.15 K

{"columns": ["ENTRY_SMILES", "solubility (mole fraction)"],
 "data": [
  ["Nc1ccnc(=O)[nH]1", 0.000461]
]}
